Reported IC50 for target or system IRE1α RNase (Homo sapiens (Human)), by entry.
experimental-readout: IC50 (nM)

> print(dat)
                                   compound  result
1  CC(C)c1nc(-c2ccc(NS(=O)(=O)c3ccccc3Cl)c(F)c2)c2c(N)ncc(C3=CCC(NC4COC4)CC3)n12 (stereo not shown)      60
2  CC(C)c1nc(-c2ccc(NS(=O)(=O)c3ccccc3F)c(F)c2)c2c(N)ncc(C3=CCC(NCCF)CC3)n12 (stereo not shown)      25
3  CC(C)c1nc(-c2ccc(NS(=O)(=O)c3ccccc3Cl)c(F)c2)c2c(N)ncc(C3=CCC(NCC(F)F)CC3)n12 (stereo not shown)     213
4  CC(C)c1nc(-c2cc(F)c(NS(=O)(=O)c3ccccc3Cl)cc2F)c2c(N)ncc(C3=CCC(NCCF)CC3)n12 (stereo not shown)       6
